Biological target: rat striatal A2a receptors (Rattus norvegicus)
Assay: Radioligand binding, [3H]CGS 21680, rat striatal A2a receptors
Parameters: Rat cerebral cortical membranes and striatal membranes were prepared; from tissue; host or cells: rat striatal membranes
Conditions: Table I; vs [3H]CGS21680 (5 nM), rat striatal A2 receptors; read-out: Ki (A2a)
recorded.metric: pKi
Quick note: pKi values are minus log10 of concentrations in mol/L.

Cn1c(=O)c2[nH]c(/C=C/c3cccc(N)c3)nc2n(C)c1=O [Compound 22a, 1,3-Dimethyl-8-(3-aminostyryl)xanthine]    6.69
CCCn1c(=O)c2c(nc(/C=C/c3cc(OC)cc(OC)c3)n2C)n(CCC)c1=O [Compound 53b]    7.62
COc1cccc(/C=C/c2nc3c([nH]2)c(=O)n(C)c(=O)n3C)c1OC [Compound 31a]    6.22
COc1ccc(/C=C/c2nc3c([nH]2)c(=O)n(C)c(=O)n3C)cc1 [Compound 29a, 1,3-Dimethyl-8-(4-methoxystyryl)xanthine]    6.33
COc1cc(/C=C/c2nc3c(c(=O)n(C)c(=O)n3C)n2C)cc(OC)c1OC/C=C/CN    6.64
Cn1c(=O)c2c(nc(/C=C/c3cccc(C(F)(F)F)c3)n2C)n(C)c1=O [Compound 20b]    6.87
Cn1c(=O)c2[nH]c(/C=C/c3cccc(F)c3)nc2n(C)c1=O [Compound 27a]    6.29
CN(C)c1ccc(/C=C/c2nc3c([nH]2)c(=O)n(C)c(=O)n3C)cc1 [Compound 30a]    4.89
COc1ccccc1/C=C/c1nc2c(c(=O)n(C)c(=O)n2C)n1C [Compound 17b]    6.57

Lab book: pKi of COc1cc(/C=C/c2nc3c(c(=O)n(C)c(=O)n3C)n2C)cc(OC)c1 [Compound 33b] noted as 7.12

* * *

Target: rat A1 cortical receptors (Rattus norvegicus, UniProt P25099)
Construct: Rat cerebral cortical membranes and striatal membranes were prepared; from tissue; host or cells: rat cerebral cortex membranes
Sequence (P25099 whole entry): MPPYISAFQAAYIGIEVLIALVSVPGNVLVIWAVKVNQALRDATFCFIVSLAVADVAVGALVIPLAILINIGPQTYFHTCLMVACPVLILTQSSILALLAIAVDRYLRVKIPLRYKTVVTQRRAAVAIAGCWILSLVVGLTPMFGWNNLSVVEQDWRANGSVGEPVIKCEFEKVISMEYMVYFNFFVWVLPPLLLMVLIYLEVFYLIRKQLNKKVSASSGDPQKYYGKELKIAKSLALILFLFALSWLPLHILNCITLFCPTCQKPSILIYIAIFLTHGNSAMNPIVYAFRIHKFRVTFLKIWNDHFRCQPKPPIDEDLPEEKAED
Experiment: Radioligand binding, [3H]N6-phenylisopropyladenosine ([3H]PIA), rat cortical A1 receptors
Conditions: Table I; vs [3H]PIA (1 nM), rat A1 receptors; read-out: Ki (A1)
# Ki per entry
Just the number plus its unit, please.

COc1cc(/C=C/c2nc3c([nH]2)c(=O)n(C)c(=O)n3C)cc(OC)c1OC [Compound 44a]    2.28 µM
CCCn1c(=O)c2[nH]c(/C=C/c3cc(OC)c(OC)cc3OC)nc2n(CCC)c1=O [Compound 56a]    0.143 µM
Cn1c(=O)c2c(nc(/C=C/c3cccc(NC(=O)CCC(=O)O)c3)n2C)n(C)c1=O    35.1 µM

--- query ---
Lab book: Ki of COc1cc(/C=C/c2nc3c(c(=O)n(C)c(=O)n3C)n2C)cc(OC)c1OCc1ccccc1 noted as 4.12 µM

* * *

Biological target: rat striatal A2a receptors (Rattus norvegicus, UniProt P30543)
Sequence (P30543 whole entry): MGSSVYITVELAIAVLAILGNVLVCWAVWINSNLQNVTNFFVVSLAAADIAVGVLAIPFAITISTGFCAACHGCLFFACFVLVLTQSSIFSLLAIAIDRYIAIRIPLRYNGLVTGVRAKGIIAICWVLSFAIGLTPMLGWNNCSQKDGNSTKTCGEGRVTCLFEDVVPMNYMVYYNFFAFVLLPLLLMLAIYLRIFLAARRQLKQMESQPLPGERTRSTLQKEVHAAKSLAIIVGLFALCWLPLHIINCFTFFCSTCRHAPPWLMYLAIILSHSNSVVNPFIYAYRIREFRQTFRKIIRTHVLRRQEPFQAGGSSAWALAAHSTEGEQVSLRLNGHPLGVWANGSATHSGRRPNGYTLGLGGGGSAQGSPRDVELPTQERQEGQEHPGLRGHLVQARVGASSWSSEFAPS
Test: Radioligand binding, [3H]CGS 21680, rat striatal A2a receptors
Parameters: Rat cerebral cortical membranes and striatal membranes were prepared; from tissue; host or cells: rat striatal membranes
Conditions: Table I; vs [3H]CGS21680 (5 nM), rat striatal A2 receptors; read-out: Ki (A2a)
# pKi per entry
Quick note: pKi values are minus log10 of concentrations in mol/L.

COc1cc(/C=C/c2nc3c(c(=O)n(C)c(=O)n3C)n2C)cc(OC)c1OC/C=C/CNC(C)=O    6.67

Lab book: pKi of COc1cc(/C=C/c2nc3c(c(=O)n(C)c(=O)n3C)n2C)cc(OC)c1OC(C)=O noted as 7.17

Lab book: pKi of Cn1c(=O)c2c(nc(/C=C/c3cccc(N(C(=O)OC(C)(C)C)C(=O)OC(C)(C)C)c3)n2C)n(C)c1=O noted as 6.13
